run.parameters: in n-pentanol, 313.15 K
observable: solubility (mole fraction)

chemical.structure	assay.result
NC(=O)c1ccncc1	0.033

----------
run.parameters: in n-propanol, 278.15 K

chemical.structure	solubility (mole fraction)
NC(=O)c1ccncc1	0.0218

----------
run.parameters: in n-propyl acetate, 288.15 K

chemical.structure	solubility (mole fraction)
NC(=O)c1ccncc1	0.00323

----------
run.parameters: in DMAc, 293.15 K

chemical.structure	solubility (mole fraction)
NC(=O)c1ccncc1	0.168

----------
run.parameters: in DMAc, 308.15 K

chemical.structure	solubility (mole fraction)
NC(=O)c1ccncc1	0.236

----------
run.parameters: in DMAc, 313.15 K

chemical.structure	solubility (mole fraction)
NC(=O)c1ccncc1	0.256

----------
run.parameters: in ethyl acetate, 278.15 K

chemical.structure	solubility (mole fraction)
NC(=O)c1ccncc1	0.00272

----------
run.parameters: in methyl acetate, 293.15 K

chemical.structure	solubility (mole fraction)
NC(=O)c1ccncc1	0.00668

----------
run.parameters: in isopropanol, 278.15 K

chemical.structure	solubility (mole fraction)
NC(=O)c1ccncc1	0.0156

----------
run.parameters: in n-butanol, 288.15 K

chemical.structure	solubility (mole fraction)
NC(=O)c1ccncc1	0.022

----------
run.parameters: in n-pentanol, 318.15 K

chemical.structure	solubility (mole fraction)
NC(=O)c1ccncc1	0.039

----------
run.parameters: in acetonitrile, 308.15 K

chemical.structure	solubility (mole fraction)
NC(=O)c1ccncc1	0.00841

----------
run.parameters: in acetonitrile, 323.15 K

chemical.structure	solubility (mole fraction)
NC(=O)c1ccncc1	0.0152

----------
run.parameters: in DMAc, 283.15 K
observable: solubility (mole fraction)

chemical.structure	assay.result
NC(=O)c1ccncc1	0.129

----------
run.parameters: in isopropyl acetate, 298.15 K

chemical.structure	solubility (mole fraction)
NC(=O)c1ccncc1	0.00328

----------
run.parameters: in ethyl acetate, 283.15 K
observable: solubility (mole fraction)

chemical.structure	assay.result
NC(=O)c1ccncc1	0.00341

----------
run.parameters: in n-propyl acetate, 298.15 K
observable: solubility (mole fraction)

chemical.structure	observable	assay.result
NC(=O)c1ccncc1	solubility (mole fraction)	0.00494

----------
run.parameters: in methanol, 308.15 K

chemical.structure	solubility (mole fraction)
NC(=O)c1ccncc1	0.0773

----------
run.parameters: in methyl acetate, 278.15 K

chemical.structure	solubility (mole fraction)
NC(=O)c1ccncc1	0.00372

----------
run.parameters: in ethyl acetate, 293.15 K

chemical.structure	solubility (mole fraction)
NC(=O)c1ccncc1	0.00504

----------
run.parameters: in isopropanol, 288.15 K
observable: solubility (mole fraction)

chemical.structure	assay.result
NC(=O)c1ccncc1	0.0211

----------
run.parameters: in n-propyl acetate, 323.15 K

chemical.structure	solubility (mole fraction)
NC(=O)c1ccncc1	0.0109

----------
run.parameters: in n-pentanol, 303.15 K

chemical.structure	solubility (mole fraction)
NC(=O)c1ccncc1	0.0234

----------
run.parameters: in methyl acetate, 318.15 K

chemical.structure	solubility (mole fraction)
NC(=O)c1ccncc1	0.0184

----------
run.parameters: in isopropanol, 283.15 K
observable: solubility (mole fraction)

chemical.structure	assay.result
NC(=O)c1ccncc1	0.0182

----------
run.parameters: in n-pentanol, 323.15 K

chemical.structure	solubility (mole fraction)
NC(=O)c1ccncc1	0.046

----------
run.parameters: in n-propanol, 288.15 K
observable: solubility (mole fraction)

chemical.structure	observable	assay.result
NC(=O)c1ccncc1	solubility (mole fraction)	0.0275

----------
run.parameters: in n-butanol, 308.15 K
observable: solubility (mole fraction)

chemical.structure	assay.result
NC(=O)c1ccncc1	0.0359

----------
run.parameters: in DMF, 303.15 K

chemical.structure	solubility (mole fraction)
NC(=O)c1ccncc1	0.181

----------
run.parameters: in n-propyl acetate, 283.15 K
observable: solubility (mole fraction)

chemical.structure	assay.result
NC(=O)c1ccncc1	0.00249

----------
run.parameters: in ethanol, 313.15 K

chemical.structure	solubility (mole fraction)
NC(=O)c1ccncc1	0.0548

----------
run.parameters: in DMF, 313.15 K

chemical.structure	solubility (mole fraction)
NC(=O)c1ccncc1	0.208

----------
run.parameters: in n-propanol, 308.15 K
observable: solubility (mole fraction)

chemical.structure	assay.result
NC(=O)c1ccncc1	0.0455

----------
run.parameters: in DMF, 298.15 K
observable: solubility (mole fraction)

chemical.structure	observable	assay.result
NC(=O)c1ccncc1	solubility (mole fraction)	0.17

----------
run.parameters: in DMF, 308.15 K
observable: solubility (mole fraction)

chemical.structure	assay.result
NC(=O)c1ccncc1	0.193

----------
run.parameters: in ethanol, 318.15 K

chemical.structure	solubility (mole fraction)
NC(=O)c1ccncc1	0.0664

----------
run.parameters: in n-propanol, 283.15 K
observable: solubility (mole fraction)

chemical.structure	assay.result
NC(=O)c1ccncc1	0.0242

----------
run.parameters: in isopropanol, 308.15 K

chemical.structure	solubility (mole fraction)
NC(=O)c1ccncc1	0.0381
